Assayed Target: T1, TIM-3 protein on human peripheral blood mononuclear lymphocytes (PBMC) (human, UniProt Q8TDQ0 22-301)
T1 sequence: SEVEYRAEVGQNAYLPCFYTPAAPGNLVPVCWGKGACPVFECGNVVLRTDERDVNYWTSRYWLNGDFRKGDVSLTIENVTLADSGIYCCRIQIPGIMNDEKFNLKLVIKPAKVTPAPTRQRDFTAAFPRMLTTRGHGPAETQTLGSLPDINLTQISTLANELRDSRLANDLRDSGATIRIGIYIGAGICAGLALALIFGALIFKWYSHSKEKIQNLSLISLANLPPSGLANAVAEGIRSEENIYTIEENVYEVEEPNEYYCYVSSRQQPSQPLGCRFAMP
Protocol Notes: cell-based or functional assay
Readout Type: IFN-γ production (donor X); antibody '0' (4th head as printed), N = 1 (pg/mL)

1) 57F4E5 fully human TIM-3 antibody (human IgG4, kappa) (antibody, V domains shown) VH: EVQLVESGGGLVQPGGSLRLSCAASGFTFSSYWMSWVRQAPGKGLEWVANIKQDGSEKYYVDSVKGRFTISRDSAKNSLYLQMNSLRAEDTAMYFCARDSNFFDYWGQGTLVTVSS VL: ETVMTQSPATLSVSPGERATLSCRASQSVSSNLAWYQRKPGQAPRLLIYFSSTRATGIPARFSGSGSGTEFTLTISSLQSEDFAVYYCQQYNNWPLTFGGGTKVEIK	2870
2) 134H3G6 fully human TIM-3 antibody (human IgG4, kappa) (antibody, V domains shown) VH: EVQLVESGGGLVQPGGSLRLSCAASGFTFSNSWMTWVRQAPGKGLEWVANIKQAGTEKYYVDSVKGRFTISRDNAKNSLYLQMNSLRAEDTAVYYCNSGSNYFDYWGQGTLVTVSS VL: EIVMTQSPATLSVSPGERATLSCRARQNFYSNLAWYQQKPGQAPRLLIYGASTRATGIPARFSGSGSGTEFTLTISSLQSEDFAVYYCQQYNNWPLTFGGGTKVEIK	2390
3) 39E5H1 fully human TIM-3 antibody (human IgG4, kappa) (antibody, V domains shown) VH: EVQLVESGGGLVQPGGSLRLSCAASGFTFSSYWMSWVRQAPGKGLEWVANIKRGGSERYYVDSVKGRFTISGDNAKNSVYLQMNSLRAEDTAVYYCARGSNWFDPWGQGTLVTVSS VL: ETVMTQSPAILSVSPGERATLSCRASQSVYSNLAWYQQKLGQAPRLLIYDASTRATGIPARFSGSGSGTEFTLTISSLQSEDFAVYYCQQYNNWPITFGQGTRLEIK	2580
